- target.under.test: T1, Ara h 3 (purified natural peanut allergen) (Arachis hypogaea)
- T1 construct: mature; bought natural protein; also called natural Ara h 3; NA-AH3-1
- assay.remarks: BLI, antibody on anti-human IgG Fc sensors, Ara h 3 as analyte, top 32 nM
Exercise: for every item that follows, state its recorded pKd.
Lab note: report pKd as minus log10 of the concentration in molar units, number only.

Query: Provide one value: measured pKd of PA12P1C07 (antibody, human IgG1, V domains shown, human IgG1, kappa) VH: QVQLEESGGGVVQPGKSLRLSCVASAFTFKRFAMHWVRQAPGKGLEWVAVISDNGLREDYEDSVKGRFTISRDNSKDTLYLQMNSLRPEDTAIYYCAKVLDYSEYSLYFGMDVWGQGTTVLVSS VL: EIVLTQSPAILSLSPGDRATLSCRTSQTVNSNFLAWYQQKPGQAPRLLIYGASRRAIDIPDRFTGSGSGTEFTLTIARLEPEDFAVYSCQHYSDSPPYTFGQGTKLEIK
Result: 7.96

Query: Complete the entry with pKd for PA13P1E10 (antibody, human IgG1, V domains shown, human IgG1, kappa) VH: QVQLVDSGGGVVQPGKSLRLSCVGSGFTFRTFGIHWVRQAPGKGLEWVAVISNDGGNSASADSVKGRFTTSRDNSKNTVYLQINSLRPEDTAIYYCAKVLDYSAFSYYYGMDVWGQGTTVIVSS VL: EIVLTQSPGTLSLSPGERGTLSCRTSQPISRAHLAWYQHKAGQAPRLLIYGSTERAAGIPERFSGGGSGSDFTLTISSLEAEDFAVYYCQHYGRSPPYTFGQGTKVEIK
Result: 8.30
